Reported % Rmax, binding to hCD64 by item:
# targetEntity: CD64 (FcgRI) (Homo sapiens, UniProt P12314)
# Sequence (P12314 16-374): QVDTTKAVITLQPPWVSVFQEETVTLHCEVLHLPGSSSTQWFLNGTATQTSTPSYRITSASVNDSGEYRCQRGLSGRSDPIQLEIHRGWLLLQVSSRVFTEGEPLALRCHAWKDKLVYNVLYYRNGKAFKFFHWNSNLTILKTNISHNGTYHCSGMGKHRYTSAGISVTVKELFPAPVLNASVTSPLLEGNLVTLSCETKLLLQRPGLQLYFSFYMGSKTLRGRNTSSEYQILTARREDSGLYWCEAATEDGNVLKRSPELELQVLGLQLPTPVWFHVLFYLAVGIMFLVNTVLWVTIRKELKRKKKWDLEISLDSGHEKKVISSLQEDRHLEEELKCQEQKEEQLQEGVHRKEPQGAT
# procedureDetails: SPR binding of 1.0 μM antibody to anti-his Fab captured FcgR-his: CD64
Give your result in % as a bare value.

- molecule: "mAb8-IgG2.3G1-AY-V27 (protein, left off: another chain or arm of the molecule) constant: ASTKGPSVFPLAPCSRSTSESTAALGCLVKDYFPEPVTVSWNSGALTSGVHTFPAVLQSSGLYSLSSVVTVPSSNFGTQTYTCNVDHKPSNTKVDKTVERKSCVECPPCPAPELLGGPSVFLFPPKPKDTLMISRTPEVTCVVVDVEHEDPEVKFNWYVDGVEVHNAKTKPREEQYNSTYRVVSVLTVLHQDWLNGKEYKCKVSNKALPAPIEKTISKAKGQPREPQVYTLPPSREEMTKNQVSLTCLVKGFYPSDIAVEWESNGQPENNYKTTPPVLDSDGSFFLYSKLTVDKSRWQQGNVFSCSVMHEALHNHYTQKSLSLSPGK"
  quantity: "% Rmax, binding to hCD64"
  observedResult: 78

From here, focus on the item given below.
What does the data say about its % Rmax, binding to hCD64? Entry: mAb8-IgG2.5G1-AY-V27 (protein, left off: another chain or arm of the molecule) constant: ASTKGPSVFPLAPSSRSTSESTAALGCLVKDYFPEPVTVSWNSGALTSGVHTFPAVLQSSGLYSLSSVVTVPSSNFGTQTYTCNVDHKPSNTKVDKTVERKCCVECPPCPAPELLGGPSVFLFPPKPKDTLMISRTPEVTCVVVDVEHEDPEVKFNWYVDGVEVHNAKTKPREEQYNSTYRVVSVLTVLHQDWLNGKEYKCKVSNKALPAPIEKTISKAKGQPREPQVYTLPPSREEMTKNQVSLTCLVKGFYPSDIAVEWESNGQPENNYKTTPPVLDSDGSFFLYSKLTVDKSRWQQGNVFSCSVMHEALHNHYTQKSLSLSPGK 77
